Examples of molecules with documented MIC follow.
tested on: Escherichia coli; assay: Antimicrobial activity against Escherichia coli MRY04-1060 expressing qepA gene by agar dilution CLSI method; type: functional

Here is how some molecules turned out for MIC.
| Molecule | Metric Name | Recorded Value |
| --- | --- | --- |
| C[C@H]1COc2c(N3CCN(C)CC3)c(F)cc3c(=O)c(C(=O)O)cn1c23.C[C@H]1COc2c(N3CCN(C)CC3)c(F)cc3c(=O)c(C(=O)O)cn1c23.O [LEVOFLOXACIN] | MIC | 64 µg/mL |
| NC[C@H]1O[C@H](O[C@H]2[C@H](O)[C@@H](O[C@H]3O[C@H](CO)[C@@H](O)[C@H](N)[C@H]3O)[C@H](N)C[C@@H]2N)[C@H](N)C[C@@H]1O [TOBRAMYCIN] | MIC | > 128 µg/mL |
| CCn1cc(C(=O)O)c(=O)c2cc(F)c(N3CCNCC3)cc21 [NORFLOXACIN] | MIC | > 128 µg/mL |

I have this molecule here, NCC[C@H](O)C(=O)N[C@@H]1C[C@H](N)[C@@H](O[C@H]2O[C@H](CN)[C@@H](O)[C@H](O)[C@H]2O)[C@H](O)[C@H]1O[C@H]1O[C@H](CO)[C@@H](O)[C@H](N)[C@H]1O [AMIKACIN] , and I need its recorded MIC.
> 128 µg/mL

I have this molecule here, CO/N=C(\C(=O)N[C@@H]1C(=O)N2C(C(=O)O)=C(COC(C)=O)CS[C@H]12)c1csc(N)n1 [CEFOTAXIME] , and I need its recorded MIC.
0.13 µg/mL

I have this molecule here, C[C@@H](O)[C@H]1C(=O)N2C(C(=O)O)=C(SCCNC=N)C[C@H]12 [IMIPENEM ANHYDROUS] , and I need its recorded MIC.
0.13 µg/mL

I have this molecule here, CC(C)(O/N=C(\C(=O)N[C@@H]1C(=O)N2C(C(=O)[O-])=C(C[n+]3ccccc3)CS[C@H]12)c1csc(N)n1)C(=O)O [CEFTAZIDIME] , and I need its recorded MIC.
0.5 µg/mL
